Here, each record is paired with measured solubility kinetic data.
# recorded-conditions: buffer; pH 7.4; 200.0 µM

# example entries with known answers
Task: Data request, read-out solubility kinetic, for CCCCc1nc2cc(C(=O)N3CCC[C@H]3CO)ccc2o1
Result: > 45.4 µg/mL

Task: Same read-out for CCCCOc1ccc(N2CC(C(=O)NCc3ccco3)CC2=O)cc1 (stereo unspecified) ?
Result: 12.6 µg/mL

Task: Same read-out for CC1CCCN(C(=O)CSc2nnc(-c3ccncc3)n2C)C1 (stereo unspecified) ?
Result: > 49.7 µg/mL

Next:
Task: Data request, read-out solubility kinetic, for O=C(O)C(=O)Nc1nc(-c2ccc3c(c2)OCCO3)cs1
Result: > 45.9 µg/mL

Task: Same read-out for c1ccc(Nc2nc(-c3ccccc3)nc3ccccc23)cc1 ?
Result: 2.5 µg/mL

Task: Same read-out for CCOc1ccc(S(=O)(=O)N=C(c2ccccc2)N2CCOCC2)cc1 ?
Result: > 56.2 µg/mL

====

Here, each record is paired with measured solubility kinetic data.
# recorded-conditions: buffer; pH 7.4; 200.0 µM
Residues, ends and D or L forms follow the SMILES beside them. *: point of attachment. Cbz = O=C(OCc1ccccc1)*

# example entries with known answers
Task: Data request, read-out solubility kinetic, for COC(=O)C(C)NC(=O)C1CCCN1C(=O)CNC(=O)OCc1ccccc1 (stereo not drawn) (Cbz-Gly-Pro-Ala-OMe; configuration not given here)
Result: > 58.7 µg/mL

Task: Same read-out for COc1ccc(-c2nc(N)ncc2-c2ccc(OC)c(OC)c2)c(O)c1 ?
Result: 1 µg/mL

Task: Same read-out for O=C(NCCc1cccc(Cl)c1)c1ccc2c(c1)OCO2 ?
Result: 5.8 µg/mL

Task: Same read-out for CCNC(=S)N1CCN(Cc2ccc3c(c2)OCO3)CC1 ?
Result: > 46.1 µg/mL

Task: Same read-out for CC12CCC(C(=O)N(CC3CO3)C1=O)C2(C)C (stereo not drawn) ?
Result: > 35.6 µg/mL

Task: Same read-out for CCc1cc(C(=O)c2ccccc2)c(N)s1 ?
Result: 16.6 µg/mL

Next:
Task: Data request, read-out solubility kinetic, for COc1cc(OC)cc(C(=O)O/N=C(\N)c2ccccn2)c1
Result: 40.6 µg/mL

Task: Same read-out for COc1ccc(C(=O)c2cnc[nH]2)cc1 ?
Result: > 30.3 µg/mL

Task: Same read-out for CO[C@H]1O[C@H](C)[C@@H](O)C[C@H]1NC(=O)OCc1ccccc1 ?
Result: > 44.3 µg/mL

Task: Same read-out for COC(=O)c1ccccc1NC(=O)CCn1c(=O)oc2ccccc21 ?
Result: > 51.1 µg/mL

Task: Same read-out for O=C(COC(=O)c1ccc2ncsc2c1)Nc1ccc(OC(F)(F)F)cc1 ?
Result: 4.4 µg/mL

Task: Same read-out for Cc1cc(/C(N)=N/OC(=O)Nc2ccc(Cl)cc2)no1 ?
Result: 15.9 µg/mL

Task: Same read-out for CCNS(=O)(=O)c1ccc(NC(=O)Nc2ccc3c(c2)OCO3)cc1 ?
Result: 12.1 µg/mL

Task: Same read-out for Cl.O=C(Nc1cccc(C(F)(F)F)c1)c1cccnc1NCCO ?
Result: > 54.3 µg/mL

Task: Same read-out for COc1cccc(NC(=O)/C=C/c2ccco2)c1 ?
Result: > 36.5 µg/mL

====

# recorded-conditions: buffer; pH 7.4; 200.0 µM
Here, each record is paired with measured log10 solubility kinetic data.
Recorded solubility kinetic (log10, µg/mL)

Task: Data request, read-out log10 solubility kinetic, for CC(=O)c1ccc(NC(=O)C(C)O/N=C(\N)c2ccccc2)cc1 (centres undefined)
Result: 1.66

Task: Same read-out for O=C(COC(=O)C1C2CC3OC(=O)C1C3C2)Nc1ccc(Cl)cc1 (centres undefined) ?
Result: 1.69

Task: Same read-out for CNC(=O)c1ncoc1-c1ccc(Cl)cc1 ?
Result: 1.53

Task: Same read-out for O=C(COC(=O)C1CCCCC1)NCc1ccc(Cl)cc1 ?
Result: 1.50

Task: Same read-out for Cc1ccc(Nc2nc(-c3cccnc3)cs2)cc1Cl ?
Result: -0.52

Task: Same read-out for OCCOCCN1CCN(C2=Nc3ccccc3Sc3ccccc32)CC1 ?
Result: 1.69

Next:
Task: Data request, read-out log10 solubility kinetic, for Cc1ccc(CNC(=O)CN(C)S(=O)(=O)c2ccc(F)cc2)cc1
Result: 0.26

Task: Same read-out for Cn1c(SCC(=O)Nc2ccccc2)nc2ccccc2c1=O ?
Result: 0.51

====

# recorded-conditions: buffer; pH 7.4; 200.0 µM
Here, each record is paired with measured solubility kinetic data.
Please give a number only; it is taken to be in µg/mL.

Task: Data request, read-out solubility kinetic, for c1csc(-c2noc(CN3CCc4sccc4C3)n2)c1
Result: 27.3

Task: Same read-out for CCC(=O)c1c[nH]c(C(=O)N2CCOCC2)c1 ?
Result: 33.7

Next:
Task: Data request, read-out solubility kinetic, for CC(C)Oc1ccc(C(=O)NC2=NCCS2)cc1
Result: 23.1

Task: Same read-out for O=C(CN1C(=O)NC(CCc2ccccc2)C1=O)Nc1ccccc1C(F)(F)F (centres undefined) ?
Result: 5.2

====

# recorded-conditions: buffer; pH 7.4; 200.0 µM
Here, each record is paired with measured solubility kinetic data.
Please give a number only; it is taken to be in µg/mL.

Task: Data request, read-out solubility kinetic, for O=C(c1cccs1)N1CCN(c2ncc(Br)cn2)CC1
Result: 9.5

Task: Same read-out for O=C(Nc1ccc(C(=O)c2ccc(C(=O)O)c(C(=O)O)c2)cc1)c1ccccc1 ?
Result: 57.4

Task: Same read-out for Cc1ccc(C(=O)N2CCN(c3cccc(C)c3C)CC2)o1 ?
Result: 31.8

Next:
Task: Data request, read-out solubility kinetic, for Cc1cc(C(=O)OCC(=O)Nc2c(Cl)cccc2Cl)c(C)o1
Result: 8.7

====

# recorded-conditions: buffer; pH 7.4; 200.0 µM
outcome-measure: solubility kinetic (µg/mL)
Please give a number only; it is taken to be in µg/mL.

# example entries with known answers
Task: Data request, read-out solubility kinetic, for CC(Oc1ccc(Cl)cc1Cl)/C(N)=N/O (configuration not stated)
Result: 30.2

Task: Same read-out for Clc1ccc(OCC#CCN2CCCC2)cc1.O=C(O)C(=O)O ?
Result: 45.1

Task: Same read-out for COc1ccc(C(C)C)cc1S(=O)(=O)NCC1CCCO1 (configuration not stated) ?
Result: 44.3

Task: Same read-out for COc1ccc(C(=O)N=c2sccn2C)cc1 ?
Result: 36.1

Task: Same read-out for COc1ccc(CNC(=O)Cc2c[nH]c3ccccc23)cc1OC ?
Result: 48.6

Now, please, on to the next compound.
Task: Data request, read-out solubility kinetic, for O=C1CC(c2ccccc2Cl)CC(O)=C1C=NCCCO (configuration not stated)
Result: 44.3

====

Here, each record is paired with measured solubility kinetic data.
# recorded-conditions: buffer; pH 7.4; 200.0 µM
Please give a number only; it is taken to be in µg/mL.

Task: Data request, read-out solubility kinetic, for CCOC(=O)c1c(NC(=O)COC(=O)c2cccnc2OCC)sc(C(=O)N(CC)CC)c1C
Result: 4.6

Task: Same read-out for COC(=O)c1ccc(CN(C)S(=O)(=O)c2cccs2)cc1 ?
Result: 2.6

Now, please, on to the next compound.
Task: Data request, read-out solubility kinetic, for Cc1ccc(C(=O)Nc2ccc(OCc3ccccc3)cc2)s1
Result: 3.8

====

# recorded-conditions: buffer; pH 7.4; 200.0 µM
outcome-measure: solubility kinetic (µg/mL)
Please give a number only; it is taken to be in µg/mL.

# example entries with known answers
Task: Data request, read-out solubility kinetic, for O=C(CN1C(=O)C2CCCCC2C1=O)OCC(=O)c1ccc(F)cc1 (stereo unspecified)
Result: 49.5

Task: Same read-out for CCOc1ccc(C(=O)N2CCN(c3ccccc3)CC2)cc1 ?
Result: 46.5

Now, please, on to the next compound.
Task: Data request, read-out solubility kinetic, for Cc1cc(C)cc(OCCn2ccnc2)c1
Result: 29.3

====

# recorded-conditions: buffer; pH 7.4; 200.0 µM
Quick rule for you: solubility kinetic at 5 µg/mL or higher means rule met, lower means rule not met.

Observe how each entry below is paired with its result.
Task: Decide: solubility kinetic of c1coc(CN2CNc3nc4ccccc4n3C2)c1 >= 5 µg/mL?
Result: rule met

Task: Same read-out for CCn1c(SCC(=O)Nc2nccs2)nnc1C1CC1 ?
Result: rule met

Task: Same read-out for COc1ccc(NC(=O)CN(C)C(=O)c2ccc3ccccc3n2)cc1 ?
Result: rule met

Next:
Task: Decide: solubility kinetic of Cc1ccccc1CN(C)C(C)C(=O)Nc1ccccc1F (configuration not stated) >= 5 µg/mL?
Result: rule met

Task: Same read-out for Oc1c(Cl)cc(Cl)cc1CNc1nccs1 ?
Result: rule not met

Task: Same read-out for CC1CN(c2nc(N(C)c3ccccc3)nc(N)c2[N+](=O)[O-])CC(C)O1 (configuration not stated) ?
Result: rule met

Task: Same read-out for O=C(NCCNC(=O)c1ccccn1)c1cccc(F)c1 ?
Result: rule met

Task: Same read-out for CSCC[C@H](NC(=O)c1cccc(S(=O)(=O)N2CCN(C)CC2)c1)c1nc2ccccc2[nH]1 ?
Result: rule met

Task: Same read-out for CN1C(=O)C2C3c4ccccc4C(c4ccccc43)[C@@H]2C1=O (some centres not stated) ?
Result: rule not met

Task: Same read-out for O=C(CSc1ncccn1)Nc1cc(Cl)ccc1[N+](=O)[O-] ?
Result: rule not met

Task: Same read-out for O=C(CSc1nc2ccccc2o1)NC1CCS(=O)(=O)C1 (configuration not stated) ?
Result: rule met

Task: Same read-out for COc1ccc(CNC(=O)Nc2cc(C)cc(C)c2)cc1 ?
Result: rule not met
